Assay: Pharmacokinetic screening in dogs, oral administration, plasma LC-MS/MS
Conditions: dog, plasma, po, 0.3 mg/kg
MEASUREMENT_LABEL: log10 of AUC (log10 of the value in µM·h)
Response schema: value (number) is log10 of AUC in units of µM·h.

log10 of AUC lookup needed for CCCC(=O)N1CCC(NC(=O)NC23CC4CC(CC(C4)C2)C3)CC1 , thanks. -1.44

log10 of AUC lookup needed for CS(=O)(=O)N1CCC(NC(=O)NC23CC4CC(CC(C4)C2)C3)CC1 , thanks. -1.09

log10 of AUC lookup needed for O=C(NC1CCN(C(=O)c2ccccn2)CC1)NC12CC3CC(CC(C3)C1)C2 , thanks. -1.10

log10 of AUC lookup needed for COC(=O)N1CCC(NC(=O)NC23CC4CC(CC(C4)C2)C3)CC1 , thanks. -1.05

log10 of AUC lookup needed for CC(=O)N1CCC(NC(=O)Nc2ccc(OC(F)(F)F)cc2)CC1 , thanks. 0.81

log10 of AUC lookup needed for CC(=O)N1CCC(CNC(=O)NC23CC4CC(CC(C4)C2)C3)CC1 , thanks. -1.09

log10 of AUC lookup needed for CCC(=O)N1CCC(NC(=O)NC23CC4CC(CC(C4)C2)C3)CC1 , thanks. -1.03

log10 of AUC lookup needed for O=C(NC1CCN(C(=O)C(F)(F)F)CC1)NC12CC3CC(CC(C3)C1)C2 , thanks. -1.36

log10 of AUC lookup needed for CC(=O)N1CCC(NC(=O)CC23CC4CC(CC(C4)C2)C3)CC1 , thanks. -1.01

log10 of AUC lookup needed for CC(=O)N1CCC(NC(=O)NC2CCCCCC2)CC1 , thanks. 0.57

log10 of AUC lookup needed for CC(=O)N1CCC(NC(=O)NC23CC4CC(CC(C4)C2)C3)CC1 , thanks. -0.22

###

Assay: Pharmacokinetic screening in dogs, oral administration, plasma LC-MS/MS
Details: dogs, single oral dose (0.3 mg/kg per FIG. 1), time 180 min
Would you kindly list LC/MS analysis, plasma level at time 180 for each of these compounds?
# print the numeric value only

LC/MS analysis, plasma level at time 180 lookup needed for O=C(NC1CCN(C(=O)c2ccccn2)CC1)NC12CC3CC(CC(C3)C1)C2 , thanks. 7.15

LC/MS analysis, plasma level at time 180 lookup needed for COC(=O)c1ccc(C(=O)N2CCC(NC(=O)NC34CC5CC(CC(C5)C3)C4)CC2)cc1 , thanks. 0.00

LC/MS analysis, plasma level at time 180 lookup needed for CC(=O)N1CCC(NC(=O)Nc2ccc(OC(F)(F)F)cc2)CC1 , thanks. 260.79

LC/MS analysis, plasma level at time 180 lookup needed for CCC(=O)N1CCC(NC(=O)NC23CC4CC(CC(C4)C2)C3)CC1 , thanks. 14.55

LC/MS analysis, plasma level at time 180 lookup needed for COC(=O)CCCC(=O)N1CCC(NC(=O)NC23CC4CC(CC(C4)C2)C3)CC1 , thanks. 0.00

LC/MS analysis, plasma level at time 180 lookup needed for O=C(NCC1CCN(C(=O)c2ccccc2)CC1)NC12CC3CC(CC(C3)C1)C2 , thanks. 0.16

LC/MS analysis, plasma level at time 180 lookup needed for CCCC(=O)N1CCC(NC(=O)NC23CC4CC(CC(C4)C2)C3)CC1 , thanks. 7.05

LC/MS analysis, plasma level at time 180 lookup needed for CC(=O)N1CCC(NC(=O)NC23CC4CC(CC(C4)C2)C3)CC1 , thanks. 56.41

LC/MS analysis, plasma level at time 180 lookup needed for O=C(NC1CCN(C(=O)C(F)(F)F)CC1)NC12CC3CC(CC(C3)C1)C2 , thanks. 10.98

LC/MS analysis, plasma level at time 180 lookup needed for O=C(NC1CCN(C(=O)c2ccccc2)CC1)NC12CC3CC(CC(C3)C1)C2 , thanks. 0.60
